Below, each entry is listed with its recorded viability, T/C.
# System: 817829-284-R-J1-PDC multi-cell spheroid viability
# Assay Summary: Anticancer human tumor 817829-284-R-J1-PDC patient-derived colon adenocarcinoma cell line growth inhibition [PI3K]
# Conditions Used: second compound 0.1 µM; first compound 0.0316 µM; hits give low values
Your answer should be a plain number; it is taken to be in %.

See these solved cases before continuing.
Compound | Units Symbol | Assay Value
CCN1CCN(Cc2ccc(Nc3ncc(F)c(-c4cc(F)c5nc(C)n(C(C)C)c5c4)n3)nc2)CC1 + Cc1nc(NC(=O)N2CCCC2C(N)=O)sc1-c1ccnc(C(C)(C)C(F)(F)F)c1 | % | 112
CC1(C)CCC(Nc2ncc(C(F)(F)F)c(-c3c[nH]c4c(P(C)(C)=O)c(C#N)ccc34)n2)CN1 (stereo not drawn) + CC(Nc1ccc2c(c1)OCCn1cc(N3C(=O)OCC3C(F)F)nc1-2)C(N)=O | % | 25.2

input: What does the data say about its viability, T/C? Entry: C#Cc1c(F)ccc2cc(O)cc(-c3ncc4c(N5CC6CCC(C5)N6)nc(OCC56CCCN5CC(F)C6)nc4c3F)c12 (stereo not drawn) + COc1c(OCCCN2CCOCC2)ccc2c3n(c(=NC(=O)c4cnc(N)nc4)nc12)CCN3
output: 28.6

---

Below, each entry is listed with its recorded viability, T/C.
# Test system: 817829-284-R-J1-PDC multi-cell spheroid viability
# Assay Summary: Anticancer human tumor 817829-284-R-J1-PDC cell line growth inhibition [PI3K];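 also: spheroids exposed to agents for seven days before readout; percent of vehicle DMSO control viability which is 100%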
# Conditions Used: second compound 0.00316 µM; first compound 3.16 µM; hits give low values
Your answer should be a plain number; it is taken to be in %.

input: What does the data say about its viability, T/C? Entry: C=CC(=O)N1CCN(c2nc(=O)n(-c3c(C)ccnc3C(C)C)c3nc(-c4c(O)cccc4F)c(F)cc23)C(C)C1 (stereo not drawn) + CC(Nc1ccc2c(c1)OCCn1cc(N3C(=O)OCC3C(F)F)nc1-2)C(N)=O
output: 77.9

input: What does the data say about its viability, T/C? Entry: CC1(C)CCC(CN2CCN(c3ccc(C(=O)NS(=O)(=O)c4ccc(NCC5CCOCC5)c([N+](=O)[O-])c4)c(Oc4cnc5[nH]ccc5c4)c3)CC2)=C(c2ccc(Cl)cc2)C1 + CC(Nc1ccc2c(c1)OCCn1cc(N3C(=O)OCC3C(F)F)nc1-2)C(N)=O
output: 62.4

input: What does the data say about its viability, T/C? Entry: Cn1nccc1Nc1nccc(-c2ccn(C(CO)c3ccc(Cl)c(F)c3)c(=O)c2)n1 (stereo not drawn) + CC(Nc1ccc2c(c1)OCCn1cc(N3C(=O)OCC3C(F)F)nc1-2)C(N)=O
output: 83.5

input: What does the data say about its viability, T/C? Entry: C#Cc1c(F)ccc2cc(O)cc(-c3ncc4c(N5CC6CCC(C5)N6)nc(OCC56CCCN5CC(F)C6)nc4c3F)c12 (stereo not drawn) + CC(Nc1ccc2c(c1)OCCn1cc(N3C(=O)OCC3C(F)F)nc1-2)C(N)=O
output: 69.9

input: What does the data say about its viability, T/C? Entry: CCCS(=O)(=O)Nc1ccc(F)c(C(=O)c2c[nH]c3ncc(-c4ccc(Cl)cc4)cc23)c1F + COc1c(OCCCN2CCOCC2)ccc2c3n(c(=NC(=O)c4cnc(N)nc4)nc12)CCN3
output: 59.5

---

# System: 817829-284-R-J1-PDC multi-cell spheroid viability
# Assay Summary: Anticancer human tumor 817829-284-R-J1-PDC cell line growth inhibition [PI3K];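 also: spheroids exposed to agents for seven days before readout; percent of vehicle DMSO control viability which is 100%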
# Conditions Used: second compound 0.1 µM; first compound 0.316 µM; hits give low values
Measure Name: viability, T/C (%)
Your answer should be a plain number; it is taken to be in %.

See these solved cases before continuing.
Compound | Assay Value
CNC(=O)c1ccc(N2C(=S)N(c3ccc(C#N)c(C(F)(F)F)c3)C(=O)C2(C)C)cc1F + COc1c(OCCCN2CCOCC2)ccc2c3n(c(=NC(=O)c4cnc(N)nc4)nc12)CCN3 | 31.2
CC1(C)CCC(Nc2ncc(C(F)(F)F)c(-c3c[nH]c4c(P(C)(C)=O)c(C#N)ccc34)n2)CN1 (stereo not drawn) + CC(Nc1ccc2c(c1)OCCn1cc(N3C(=O)OCC3C(F)F)nc1-2)C(N)=O | 32.1

// next item, viability, T/C requested
input: What does the data say about its viability, T/C? Entry: CC(Cn1ccc(-c2ccc(C#N)c(Cl)c2)n1)NC(=O)c1cc(C(C)O)[nH]n1 (stereo not drawn) + CC(Nc1ncnc2nc[nH]c12)c1cc2cccc(Cl)c2c(=O)n1-c1ccccc1
output: 95.7

---

# Tested on: 817829-284-R-J1-PDC multi-cell spheroid viability
# Assay Summary: Anticancer human tumor 817829-284-R-J1-PDC cell line growth inhibition [PI3K];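 also: spheroids exposed to agents for seven days before readout; percent of vehicle DMSO control viability which is 100%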
# Conditions Used: second compound 0.0316 µM; first compound 1 µM; hits give low values
Below, each entry is listed with its recorded viability, T/C.
Your answer should be a plain number; it is taken to be in %.

See these solved cases before continuing.
Compound | Tested Target | viability, T/C / %
CC(Cn1ccc(-c2ccc(C#N)c(Cl)c2)n1)NC(=O)c1cc(C(C)O)[nH]n1 (stereo not given) + CC(Nc1ncnc2nc[nH]c12)c1cc2cccc(Cl)c2c(=O)n1-c1ccccc1 | 817829-284-R-J1-PDC multi-cell spheroid viability | 64.6
CC(C)NCC(C(=O)N1CCN(c2ncnc3c2C(C)CC3O)CC1)c1ccc(Cl)cc1 (stereo not given) + COc1c(OCCCN2CCOCC2)ccc2c3n(c(=NC(=O)c4cnc(N)nc4)nc12)CCN3 | 817829-284-R-J1-PDC multi-cell spheroid viability | 21.4
CCCS(=O)(=O)Nc1ccc(F)c(C(=O)c2c[nH]c3ncc(-c4ccc(Cl)cc4)cc23)c1F + CC(Nc1ncnc2nc[nH]c12)c1cc2cccc(Cl)c2c(=O)n1-c1ccccc1 | 817829-284-R-J1-PDC multi-cell spheroid viability | 52
CNC(=O)c1ccc(N2C(=S)N(c3ccc(C#N)c(C(F)(F)F)c3)C(=O)C2(C)C)cc1F + COc1c(OCCCN2CCOCC2)ccc2c3n(c(=NC(=O)c4cnc(N)nc4)nc12)CCN3 | 817829-284-R-J1-PDC multi-cell spheroid viability | 105

// next item, viability, T/C requested
input: # query: viability, T/C | item Cn1nccc1Nc1nccc(-c2ccn(C(CO)c3ccc(Cl)c(F)c3)c(=O)c2)n1 (stereo not given) + Cc1nc(NC(=O)N2CCCC2C(N)=O)sc1-c1ccnc(C(C)(C)C(F)(F)F)c1 | system: 817829-284-R-J1-PDC multi-cell spheroid viability
output: 90.7

---

# System: 817829-284-R-J1-PDC multi-cell spheroid viability
# Assay Summary: Anticancer human tumor 817829-284-R-J1-PDC cell line growth inhibition [PI3K];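 also: spheroids exposed to agents for seven days before readout; percent of vehicle DMSO control viability which is 100%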
# Conditions Used: second compound 0.00316 µM; first compound 0.0316 µM; hits give low values
# From the text: Combinatorial screen of targeted agents with the PI3K inhibitors inavolisib, alpelisib, duvelisib, and copanlisib in multi-cell type tumor spheroids A high-throughput screen of multi-cell type tumor spheroids was designed to identify active combinations of targeted small molecules and PI3K pathway inhibitors. […] Compounds. […] If the clinical Cmax for an agent had not been determined, the highest concentration tested was 10 microM. […]
// bucketize viability, T/C: lower level: < 70%; middle level: ≥ 70% and < 90%; upper level: ≥ 90%

# count of solved cases: 5
Compound | Class
CC1(C)CCC(Nc2ncc(C(F)(F)F)c(-c3c[nH]c4c(P(C)(C)=O)c(C#N)ccc34)n2)CN1 (stereo not given) + CC(Nc1ccc2c(c1)OCCn1cc(N3C(=O)OCC3C(F)F)nc1-2)C(N)=O | lower level
CC1(C)CCC(CN2CCN(c3ccc(C(=O)NS(=O)(=O)c4ccc(NCC5CCOCC5)c([N+](=O)[O-])c4)c(Oc4cnc5[nH]ccc5c4)c3)CC2)=C(c2ccc(Cl)cc2)C1 + COc1c(OCCCN2CCOCC2)ccc2c3n(c(=NC(=O)c4cnc(N)nc4)nc12)CCN3 | lower level
CNC(=O)c1ccc(N2C(=S)N(c3ccc(C#N)c(C(F)(F)F)c3)C(=O)C2(C)C)cc1F + COc1c(OCCCN2CCOCC2)ccc2c3n(c(=NC(=O)c4cnc(N)nc4)nc12)CCN3 | middle level
CCCS(=O)(=O)Nc1ccc(F)c(C(=O)c2c[nH]c3ncc(-c4ccc(Cl)cc4)cc23)c1F + CC(Nc1ccc2c(c1)OCCn1cc(N3C(=O)OCC3C(F)F)nc1-2)C(N)=O | lower level
Cn1ncc(Cl)c1-c1cc(C(=O)NC(CN)Cc2cccc(F)c2)sc1Cl (stereo not given) + CC(Nc1ccc2c(c1)OCCn1cc(N3C(=O)OCC3C(F)F)nc1-2)C(N)=O | middle level

input: Class? Entry: C#Cc1c(F)ccc2cc(O)cc(-c3ncc4c(N5CC6CCC(C5)N6)nc(OCC56CCCN5CC(F)C6)nc4c3F)c12 (stereo not given) + CC(Nc1ccc2c(c1)OCCn1cc(N3C(=O)OCC3C(F)F)nc1-2)C(N)=O
output: middle level

input: Class? Entry: CC1(C)CCC(CN2CCN(c3ccc(C(=O)NS(=O)(=O)c4ccc(NCC5CCOCC5)c([N+](=O)[O-])c4)c(Oc4cnc5[nH]ccc5c4)c3)CC2)=C(c2ccc(Cl)cc2)C1 + CC(Nc1ccc2c(c1)OCCn1cc(N3C(=O)OCC3C(F)F)nc1-2)C(N)=O
output: middle level

input: Class? Entry: C[C@@H](NC(=O)c1ncnc(N)c1Cl)c1ncc(C(=O)Nc2cc(C(F)(F)F)c(Cl)cn2)s1 + COc1c(OCCCN2CCOCC2)ccc2c3n(c(=NC(=O)c4cnc(N)nc4)nc12)CCN3
output: upper level

input: Class? Entry: CCCS(=O)(=O)Nc1ccc(F)c(C(=O)c2c[nH]c3ncc(-c4ccc(Cl)cc4)cc23)c1F + COc1c(OCCCN2CCOCC2)ccc2c3n(c(=NC(=O)c4cnc(N)nc4)nc12)CCN3
output: upper level

input: Class? Entry: C#Cc1c(F)ccc2cc(O)cc(-c3ncc4c(N5CC6CCC(C5)N6)nc(OCC56CCCN5CC(F)C6)nc4c3F)c12 (stereo not given) + COc1c(OCCCN2CCOCC2)ccc2c3n(c(=NC(=O)c4cnc(N)nc4)nc12)CCN3
output: lower level

input: Class? Entry: CC(C)n1nc(-c2ccc3oc(N)nc3c2)c2c(N)ncnc21 + COc1c(OCCCN2CCOCC2)ccc2c3n(c(=NC(=O)c4cnc(N)nc4)nc12)CCN3
output: lower level

Origin of the recorded values: PubChem BioAssay AID1963969
